# MSCrif per record follows
- Tested on: E. coli EQASmcr-1 (EQAS 2016 412016126)
- Type: cell-based, Escherichia coli
- MEASUREMENT PARAMETERS: rifampicin concentration in the combination giving the lowest FICi; E. coli EQASmcr-1
- Protocol: All peptides were screened for antimicrobial activity against E. coli BW25113, E. coli ATCC25922, and E. coli W3110. […] Two 96-well plates were required per compound. […] After incubation for 20 h at 37 °C while shaking, the breathable seals were removed and the density of the bacterial suspensions measured at 600 nm (OD600) using a Tecan Spark plate reader. […] The FICi was calculated using Equation (1) with a FICi ≤ 0.5 indicating synergy. […]
Peptide text beside a SMILES is read from it.

COMPOUND	MSCrif / µg/mL
CC[C@H](C)[C@H](NC(=O)[C@@H](NC(=O)[C@H](CCCCN)NC(=O)[C@H](CCC(N)=O)NC(=O)[C@@H](NC(=O)[C@H](Cc1c[nH]c2ccccc12)NC(=O)[C@H](CCCCN)NC(=O)[C@H](CCCCN)NC(=O)[C@H](CC(C)C)NC(=O)[C@H](CCCNC(=N)N)NC(=O)[C@H](Cc1ccccc1)NC(=O)[C@@H](N)C(C)C)[C@@H](C)CC)C(C)C)C(N)=O [peptide 6] (H-VFRLKKWIQKVI-NH2)	0.125
CC[C@H](C)[C@H](NC(=O)[C@H](Cc1c[nH]c2ccccc12)NC(=O)[C@H](CCCCN)NC(=O)[C@H](CCCCN)NC(=O)[C@H](CC(C)C)NC(=O)[C@H](CCCNC(=N)N)NC(=O)[C@H](Cc1ccccc1)NC(=O)[C@@H](N)C(C)C)C(=O)N[C@@H](CCC(N)=O)C(=O)N[C@@H](CCCCN)C(=O)N[C@H](C(=O)N[C@@H](C)C(N)=O)C(C)C [peptide 19] (H-VFRLKKWIQKVA-NH2)	0.5
CC[C@H](C)[C@H](NC(=O)[C@@H](NC(=O)[C@H](CCCCN)NC(=O)[C@H](CCC(N)=O)NC(=O)[C@@H](NC(=O)[C@H](C)NC(=O)[C@H](CCCCN)NC(=O)[C@H](CCCCN)NC(=O)[C@H](CC(C)C)NC(=O)[C@H](CCCNC(=N)N)NC(=O)[C@H](Cc1ccccc1)NC(=O)[C@@H](N)C(C)C)[C@@H](C)CC)C(C)C)C(N)=O [peptide 14] (H-VFRLKKAIQKVI-NH2)	0.5
CC[C@H](C)[C@H](NC(=O)[C@@H](NC(=O)[C@H](CCCCN)NC(=O)[C@H](CCC(N)=O)NC(=O)[C@@H](NC(=O)[C@H](Cc1c[nH]c2ccccc12)NC(=O)[C@H](CCCCN)NC(=O)[C@H](CCCCN)NC(=O)[C@H](CC(C)C)NC(=O)[C@H](C)NC(=O)[C@H](Cc1ccccc1)NC(=O)[C@@H](N)C(C)C)[C@@H](C)CC)C(C)C)C(N)=O [peptide 10] (H-VFALKKWIQKVI-NH2)	0.125

----------
# MSCery per record follows
- Tested on: E. coli BW25113
- ASSAY SUMMARY: Checkerboard assay with erythromycin
- Format: cell-based, Escherichia coli
- MEASUREMENT PARAMETERS: erythromycin concentration in the combination with the synergist giving the lowest FICi; E. coli BW25113
Square brackets hold non-standard residues; d marks the D form. Peptide text beside a SMILES is read from it.

MOLECULE	MSCery
CC[C@@H](C)[C@@H](N)C(=O)N[C@@H](C(=O)N[C@H](CCCCN)C(=O)N[C@H](CCC(N)=O)C(=O)N[C@@H](C(=O)N[C@H](Cc1c[nH]c2ccccc12)C(=O)N[C@H](CCCCN)C(=O)N[C@H](CCCCN)C(=O)N[C@H](CC(C)C)C(=O)N[C@H](CCCNC(=N)N)C(=O)N[C@H](Cc1ccccc1)C(=O)N[C@@H](C(N)=O)C(C)C)[C@H](C)CC)C(C)C [peptide 22] (H-[dI][dV][dK][dQ][dI][dW][dK][dK][dL][dR][dF][dV]-NH2)	6.25 µg/mL
CC[C@H](C)[C@H](NC(=O)[C@@H](NC(=O)[C@H](CCCCN)NC(=O)[C@H](CCC(N)=O)NC(=O)[C@@H](NC(=O)[C@H](Cc1c[nH]c2ccccc12)NC(=O)[C@H](CCCCN)NC(=O)[C@H](CCCCN)NC(=O)[C@H](CC(C)C)NC(=O)[C@H](CCCNC(=N)N)NC(=O)[C@H](Cc1ccccc1)NC(=O)[C@@H](NC(C)=O)C(C)C)[C@@H](C)CC)C(C)C)C(N)=O [peptide 7] (Ac-VFRLKKWIQKVI-NH2)	3.125 µg/mL
CC[C@H](C)[C@H](NC(=O)[C@@H](NC(=O)[C@H](CCCCN)NC(=O)[C@H](CCC(N)=O)NC(=O)[C@@H](NC(=O)[C@H](Cc1c[nH]c2ccccc12)NC(=O)[C@H](CCCCN)NC(=O)[C@H](CCCCN)NC(=O)[C@H](CC(C)C)NC(=O)[C@H](CCCNC(=N)N)NC(=O)[C@H](Cc1ccccc1)NC(=O)[C@@H](N)C(C)C)[C@@H](C)CC)C(C)C)C(N)=O [peptide 6] (H-VFRLKKWIQKVI-NH2)	12.5 µg/mL
CC[C@H](C)[C@H](NC(=O)[C@@H](NC(=O)[C@H](CCCCN)NC(=O)[C@H](CCC(N)=O)NC(=O)[C@@H](NC(=O)[C@H](Cc1c[nH]c2ccccc12)NC(=O)[C@H](CCCCN)NC(=O)[C@H](CCCCN)NC(=O)[C@H](CC(C)C)NC(=O)[C@H](C)NC(=O)[C@H](Cc1ccccc1)NC(=O)[C@@H](N)C(C)C)[C@@H](C)CC)C(C)C)C(N)=O [peptide 10] (H-VFALKKWIQKVI-NH2)	3.125 µg/mL
CC[C@@H](C)[C@@H](NC(=O)[C@H](NC(=O)[C@@H](CCCCN)NC(=O)[C@@H](CCC(N)=O)NC(=O)[C@H](NC(=O)[C@@H](Cc1c[nH]c2ccccc12)NC(=O)[C@@H](CCCCN)NC(=O)[C@@H](CCCCN)NC(=O)[C@@H](CC(C)C)NC(=O)[C@@H](CCCNC(=N)N)NC(=O)[C@@H](Cc1ccccc1)NC(=O)[C@H](N)C(C)C)[C@H](C)CC)C(C)C)C(N)=O [peptide 20] (H-[dV][dF][dR][dL][dK][dK][dW][dI][dQ][dK][dV][dI]-NH2)	3.125 µg/mL
